Method Summary: The drug is tested on Dorea formicigenerans strain: ATCC27755 for biotransformation. The drug concentrations were measured before and after a 12-h incubation by liquid-chromatography-coupled mass spectrometry (LC–MS)
Condition Label: 2 µM
Measure Name: Bacterial Biotransformation

Compound | Bacterial Biotransformation
CC1=C(CC(=O)O)c2cc(F)ccc2/C1=C\c1ccc([S+](C)[O-])cc1 (centres undefined) | Compound NOT metabolized
CCN(CC)CC#CCOC(=O)C(O)(c1ccccc1)C1CCCCC1.Cl (centres undefined) [OXYBUTYNIN CHLORIDE] | Compound metabolized
CN(C)CCc1c[nH]c2ccc(Cn3cncn3)cc12.O=C(O)c1ccccc1 [RIZATRIPTAN BENZOATE] | Compound NOT metabolized
CC(O)(CS(=O)(=O)c1ccc(F)cc1)C(=O)Nc1ccc(C#N)c(C(F)(F)F)c1 (centres undefined) [BICALUTAMIDE] | Compound NOT metabolized
CC(C)NCC(O)COc1ccc(CC(N)=O)cc1 (centres undefined) | Compound NOT metabolized
CN(C)CCOC(c1ccc(Cl)cc1)c1ccccn1.O=C(O)/C=C\C(=O)O (centres undefined) [CARBINOXAMINE MALEATE] | Compound NOT metabolized

Prompt: I'd like to know its Bacterial Biotransformation. The compound in question is CC(=O)Nc1ccc(OC(C)=O)cc1 [DIACETAMATE]
Completion: Compound metabolized

Prompt: Same lookup for C=CCc1ccccc1OCC(O)CNC(C)C (centres undefined) , please.
Completion: Compound NOT metabolized

Prompt: NC(=O)N1c2ccccc2CC(=O)c2ccccc21 [OXCARBAZEPINE] ?
Completion: Compound metabolized

Prompt: Query COC(=O)[C@H]1[C@H]2C[C@@H]3c4[nH]c5cc(OC)ccc5c4CCN3C[C@H]2C[C@@H](OC(=O)c2cc(OC)c(OC)c(OC)c2)[C@@H]1OC next
Completion: Compound NOT metabolized

Prompt: Now consider CCN(CC)CCNC(C(=O)OCCC(C)C)c1ccccc1.Cl.Cl (centres undefined) and answer again.
Completion: Compound NOT metabolized

Prompt: Similarly, CC(C)C[C@H]1C(=O)N2CCC[C@H]2[C@]2(O)O[C@](NC(=O)[C@@H]3C=C4c5cccc6[nH]c(Br)c(c56)C[C@H]4N(C)C3)(C(C)C)C(=O)N12.CS(=O)(=O)O [BROMOCRIPTINE MESYLATE] ?
Completion: Compound metabolized

Prompt: What about CCOC(=O)C1=C(C)NC(C)=C(C(=O)OC)C1c1cccc([N+](=O)[O-])c1 (centres undefined) ?
Completion: Compound metabolized

Prompt: Same for Nc1nnc(-c2cccc(Cl)c2Cl)c(N)n1
Completion: Compound NOT metabolized

Prompt: Follow-up entry: CCN(CC)CCOCCOC(=O)C1(c2ccccc2)CCCC1.O=C(O)CC(O)(CC(=O)O)C(=O)O [CARBETAPENTANE CITRATE]
Completion: Compound metabolized

Prompt: // repeat for CC1Cc2ccccc2N1NC(=O)c1ccc(Cl)c(S(N)(=O)=O)c1 (centres undefined) [INDAPAMIDE] and report
Completion: Compound NOT metabolized

Prompt: How about O=c1[nH]c2ccccc2n1C1CCN(CCCC(c2ccc(F)cc2)c2ccc(F)cc2)CC1 [PIMOZIDE] ?
Completion: Compound NOT metabolized

Prompt: Next: CN(C)CCC=C1c2ccccc2C=Cc2ccccc21
Completion: Compound NOT metabolized

Prompt: Would you kindly repeat that for CCCc1nc2c(C)cc(-c3nc4ccccc4n3C)cc2n1Cc1ccc(-c2ccccc2C(=O)O)cc1 ?
Completion: Compound NOT metabolized

Prompt: Another compound: C[C@]12CCC(=O)C=C1[C@@H]1C[C@@H]1[C@H]1[C@@H]3[C@@H]4C[C@@H]4[C@@]4(CCC(=O)O4)[C@@]3(C)CC[C@@H]12
Completion: Compound NOT metabolized

Prompt: // next record CS(=O)(=O)O.OC(CCN1CCCCC1)(c1ccccc1)c1ccccc1 [PRIDINOL METHANESULFONATE]
Completion: Compound NOT metabolized

Prompt: Let us now turn to CC(C)(C)NC[C@H](O)COc1ccccc1C1CCCC1.CC(C)(C)NC[C@H](O)COc1ccccc1C1CCCC1.O=S(=O)(O)O [PENBUTOLOL SULFATE]
Completion: Compound NOT metabolized

Prompt: Can you handle CCCc1nc(C(C)(C)O)c(C(=O)OCc2oc(=O)oc2C)n1Cc1ccc(-c2ccccc2-c2nnn[nH]2)cc1 next?
Completion: Compound metabolized

Prompt: Next up: CC(C)(C)NC[C@H](O)COc1nsnc1N1CCOCC1.O=C(O)/C=C\C(=O)O [TIMOLOL MALEATE]
Completion: Compound NOT metabolized

Prompt: Request: O=C(O)COCCN1CCN(C(c2ccccc2)c2ccc(Cl)cc2)CC1 (centres undefined)
Completion: Compound NOT metabolized

Prompt: One more compound: CN/C(=N/CCSCc1nc[nH]c1C)NC#N
Completion: Compound NOT metabolized

Prompt: // query: C[N+]12CCC(CC1)C(OC(=O)C(O)(c1ccccc1)c1ccccc1)C2.[Br-] (centres undefined) [CLIDINIUM BROMIDE]
Completion: Compound NOT metabolized

----------
Method Summary: The drug is tested on Alistipes indistinctus strain: DSM22520 for biotransformation. The drug concentrations were measured before and after a 12-h incubation by liquid-chromatography-coupled mass spectrometry (LC–MS)
Condition Label: 2 µM
Measure Name: Bacterial Biotransformation

Illustrative cases are given below, each with its answer.
Compound | Measure Name | Recorded Measurement
CN1[C@@H]2CC[C@H]1C[C@@H](OC(=O)C(CO)c1ccccc1)C2 (stereo partly drawn) | Bacterial Biotransformation | Compound NOT metabolized
O=C1NCC2(CCN(CCc3ccccc3)CC2)O1 [FENSPIRIDE] | Bacterial Biotransformation | Compound NOT metabolized
CCN(CC)CCNC(=O)c1cc(S(C)(=O)=O)ccc1OC [TIAPRIDE] | Bacterial Biotransformation | Compound NOT metabolized
CC[C@@H](CO)NC(=O)[C@@H]1C=C2c3cccc4c3c(cn4C)C[C@H]2N(C)C1.O=C(O)/C=C\C(=O)O [METHYSERGIDE MALEATE] | Bacterial Biotransformation | Compound metabolized
Br.CN(C)CCCC1(c2ccc(F)cc2)OCc2cc(C#N)ccc21 (stereo not drawn) [CITALOPRAM HYDROBROMIDE] | Bacterial Biotransformation | Compound NOT metabolized

Prompt: I am curious: what Bacterial Biotransformation value has been reported for C[C@H]1O[C@@H](O[C@H]2[C@@H](O)C[C@H](O[C@H]3[C@@H](O)C[C@H](O[C@H]4CC[C@@]5(C)[C@H](CC[C@@H]6[C@@H]5C[C@@H](O)[C@]5(C)[C@@H](C7=CC(=O)OC7)CC[C@]65O)C4)O[C@@H]3C)O[C@@H]2C)C[C@H](O)[C@@H]1O ?
Completion: Compound NOT metabolized

Prompt: // next record CC1=C(CC(=O)O)c2cc(F)ccc2/C1=C\c1ccc([S+](C)[O-])cc1 (stereo not drawn)
Completion: Compound NOT metabolized

Prompt: Can you handle CCCCC1=NC2(CCCC2)C(=O)N1Cc1ccc(-c2ccccc2-c2nnn[nH]2)cc1 next?
Completion: Compound metabolized

Prompt: What do you have for C[C@@H](c1ncncc1F)[C@](O)(Cn1cncn1)c1ccc(F)cc1F ?
Completion: Compound NOT metabolized

Prompt: Repeat for the following compound: CNNCc1ccc(C(=O)NC(C)C)cc1
Completion: Compound NOT metabolized

Prompt: Same thing, different compound: Cc1ccc(/C(=C\CN2CCCC2)c2ccccn2)cc1
Completion: Compound NOT metabolized

Prompt: Now this one: CN1CCN(C(=O)O[C@H]2c3nccnc3C(=O)N2c2ccc(Cl)cn2)CC1
Completion: Compound NOT metabolized

Prompt: Also need CC(=O)OCC(=O)NCCCOc1cccc(CN2CCCCC2)c1 [ROXATIDINE ACETATE] , thanks.
Completion: Compound metabolized

Prompt: Another compound: O=C(NCc1ccccc1)OCCO [BURAMATE]
Completion: Compound NOT metabolized

Prompt: Record: CCCC(C)(COC(N)=O)COC(=O)NC(C)C (stereo not drawn)
Completion: Compound NOT metabolized

Prompt: Again, but for Cc1ccccc1C(OCCN(C)C)c1ccccc1.O=C(O)CC(O)(CC(=O)O)C(=O)O (stereo not drawn) [ORPHENADRINE CITRATE]
Completion: Compound NOT metabolized

Prompt: What do you have for O=C1C(CC[S+]([O-])c2ccccc2)C(=O)N(c2ccccc2)N1c1ccccc1 (stereo not drawn) ?
Completion: Compound NOT metabolized

Prompt: Consider next the compound C[C@]12C=CC(=O)C=C1CC[C@@H]1[C@@H]2C(=O)C[C@@]2(C)[C@H]1CC[C@]2(O)C(=O)CO in the same way.
Completion: Compound NOT metabolized

Prompt: Please do the same for C[C@@H]1CC[C@H]2[C@@H](C)C(=O)O[C@@H]3O[C@@]4(C)CC[C@@H]1[C@]32OO4 as well.
Completion: Compound metabolized

Prompt: // next record CC(C)(C)NC(=O)[C@H]1CC[C@H]2[C@@H]3CC[C@H]4NC(=O)C=C[C@]4(C)[C@H]3CC[C@]12C [FINASTERIDE]
Completion: Compound NOT metabolized

Prompt: Now consider CC(CN(C)C)CN1c2ccccc2CCc2ccccc21.O=C(O)/C=C\C(=O)O (stereo not drawn) [TRIMIPRAMINE MALEATE] and answer again.
Completion: Compound NOT metabolized

Prompt: Now consider C#C[C@]1(OC(C)=O)CC[C@H]2[C@@H]3CCC4=C/C(=N/O)CC[C@@H]4[C@H]3CC[C@@]21CC [NORGESTIMATE] and answer again.
Completion: Compound NOT metabolized

Prompt: Repeat for the following compound: Cc1ccc(NC(=O)c2ccc(CN3CCN(C)CC3)cc2)cc1Nc1nccc(-c2cccnc2)n1
Completion: Compound NOT metabolized

Prompt: Same lookup for CCN(CC)C(C)CN1c2ccccc2Sc2ccccc21 (stereo not drawn) , please.
Completion: Compound NOT metabolized
